Origin of measurements: ChEMBL document CHEMBL1201862

System: MOLT-4
assay-overview: NCI tumour cell line growth inhibition, 48 h
The source made the active and inactive calls. Cut-off read from the data, not from the text of the source: active = GI50 up to about 1.1 µM and inactive = higher.
metric-name: GI50

COc1ccc(OCC(=O)O)c2c1CCC(C)C2=O (stereo not given) : > 100 µM (inactive)
N#CC12C(=O)N=C(N)C1(C#N)C(c1ccco1)NC1=C2CCCC1 (stereo not given) : > 100 µM (inactive)
CC#CC(O)(C(=O)OC1CC(C)N(C)C(C)(C)C1)C1CCCC1 (stereo not given) : > 100 µM (inactive)
C=C(C)C(=O)O[C@H]1C[C@@]23O[C@@H]2CCC(=C[C@H]2OC(=O)C(=C)[C@H]12)COC3O (stereo not given in full) : 28.7 µM (inactive)
COC(=O)c1cc(OC)c(OC)c(OC)c1-c1cc2c(cc1C=O)OCO2 : > 10 µM (inactive)
O=C(O)CN(c1ccccc1)S(=O)(=O)c1ccc(NC(=O)c2ccccc2)cc1 : > 100 µM (inactive)
COC1=C(OC)C(=O)C(Cc2c(C)nc3sc(C)cn23)=C(C)C1=O : 1.7 µM (inactive)
NC(=O)c1csc(C2O[C@@H](COP(=O)(O)OP(=O)(O)OC[C@H]3OC(n4cnc5c(N)ncnc54)[C@H](O)[C@@H]3O)[C@H](O)[C@@H]2O)n1 (stereo not given in full) : 59.2 µM (inactive)
NC(CN(O)N=O)C(=O)O (stereo not given) : 20.1 µM (inactive)
COC(=O)/C=C1/OC(c2ccc(Br)cc2)=C(Br)C1=O : 2.42 µM (inactive)

----------
Test system: MDA-MB-231
assay-overview: NCI tumour cell line growth inhibition, 48 h
Active and inactive are the calls of the source. No stated cut-off is given here; in the data, active = GI50 up to about 1.1 µM and inactive = higher.
metric-name: GI50

O=C(Nc1ccccc1)C(=O)C(C(=O)c1ccccc1)C(c1ccccc1)c1ccccc1 (stereo unspecified) : > 10 µM (inactive)
COc1ccc(-c2c(C#N)c(S)n(NS(=O)(=O)c3ccc(C)cc3)c(=O)c2C#N)cc1 : 17.8 µM (inactive)
COc1cccc(/C=N/[N+](C)(C)C)c1O : > 10 µM (inactive)
CN(C)c1cccc2c(S(=O)(=O)NCCN)cccc12 [DANSYL ETHYLENEDIAMINE] : > 100 µM (inactive)
CC1CC(C)C2=NOS3=C2C1=NO3 (stereo unspecified) : > 100 µM (inactive)
CO[C@H]1[C@@H](O)[C@H](O[C@@H]2C[C@H]3CC[C@@H]4[C@H](CC[C@]5(C)[C@@H](C6=CC(=O)OC6)CC[C@]45O)[C@@]3(C)[C@H](OC(C)=O)C2)O[C@@H](C)[C@H]1O : 4.2 µM (inactive)
CCOC(=O)c1cccc(NC(=O)CCl)c1 : 4.57 µM (inactive)
O/N=C1\C/C(=N\O)c2c(Br)sc(Br)c21 : 77.1 µM (inactive)
Cc1cc(S(=O)(=O)Nc2nc3cscc3c(=O)n2N)c(S)cc1Cl : 73.8 µM (inactive)
O=C(N/N=C(COc1ccccc1Cl)\N=C\c1ccncc1)c1ccncc1 : > 100 µM (inactive)
COc1ccccc1C1C2=C(COC2=O)OC(C)(C)Oc2cc3c(cc21)OCO3 (stereo unspecified) : 2.86 µM (inactive)
CO/N=C\c1ccc2c(c1)Sc1ccccc1O2 : > 100 µM (inactive)
CO[C@@]12[C@H](COC(N)=O)C3=C(C(=O)C(C)=C(N)C3=O)N1C[C@H]1[C@@H]2N1C (stereo partly specified) [PORFIROMYCIN] : 9.73 µM (inactive)
O=c1cc(N2CCCC2)[nH]c(=O)n1Cc1ccccc1 : > 100 µM (inactive)
c1cc2nnc1SCCCSc1ccc(nn1)SCCCS2 : 30 µM (inactive)
NN/C(=N\S(=O)(=O)c1cccc2nsnc12)Nc1ccc(Cl)cc1 : > 100 µM (inactive)
c1ccc(C2CC(N3CCOCC3)=Nc3ccccc3N2)cc1 (stereo unspecified) : > 100 µM (inactive)
CC(=O)n1c2ccc(Br)cc2c2nc3ccccc3nc21 : > 100 µM (inactive)
c1cc(C2N3CCCN2CC3)ccn1 (stereo unspecified) : > 100 µM (inactive)
O=C(COc1ccc(Cl)c(Cl)c1)Nc1ccc[n+](Cc2ccc(S(=O)(=O)F)c(Cl)c2)c1 : 36.6 µM (inactive)
C=CCn1c(=O)ccn(COCCO)c1=O : > 100 µM (inactive)

----------
Test system: HT-29
assay-overview: NCI tumour cell line growth inhibition, 48 h
Active and inactive are the calls of the source. No stated cut-off is given here; in the data, active = GI50 up to about 1.1 µM and inactive = higher.
metric-name: GI50

NN/C(=N\S(=O)(=O)c1cccc2nsnc12)Nc1ccc(Cl)cc1 : > 100 µM (inactive)
CS(=O)(=O)OCCN(CCOS(C)(=O)=O)c1ccc(/C=N/c2ccc(-c3csc(Cc4ccccc4)n3)cc2)c(Cl)c1 : 21.9 µM (inactive)
O=[N+]([O-])C(/C=C(\Cl)[N+](=O)[O-])=C1Nc2ccccc2N1 : 39.6 µM (inactive)
Cc1cc(=O)oc2cc(OCCCOc3ccc4c(C)cc(=O)oc4c3)ccc12 : > 100 µM (inactive)
CC(C)(C)[Si](OC1CCOC1=O)(c1ccccc1)c1ccccc1 (stereo unspecified) : 15.3 µM (inactive)
COc1ccc(/C=C2\CCC(C)/C(=C\c3ccc(OC)c(OC)c3)C2=O)cc1OC (stereo unspecified) : 4.38 µM (inactive)
CC(C)NCC(O)COC(=O)c1cccs1 (stereo unspecified) : > 100 µM (inactive)
COc1ccc(O)c(C#N)c1C#N : > 100 µM (inactive)
O=C1/C(=C/c2ccccc2)NC(=S)N1CN1CCOCC1 : > 100 µM (inactive)
O=c1c2cc(Cl)ccc2[nH]c2cc(O)cc(O)c12 : > 10 µM (inactive)
CN1CCN(C(=S)N2CCN(C)CC2)CC1 : 1.73 µM (inactive)

----------
Test system: KM12
assay-overview: NCI tumour cell line growth inhibition, 48 h
Active and inactive are the calls of the source. Cut-off read from the data, not from the text of the source: active = GI50 up to about 1.1 µM and inactive = higher.
Labels: yes (1) (active), no (0) (inactive)

CC(C)NCC(O)COC(=O)c1cccs1 (stereo not drawn) : no (0)
O=C1C(=C(C(=O)c2ccccc2)C(=O)c2ccccc2)OC(c2ccccc2)=C1C(=O)c1ccccc1 : no (0)
N#Cc1ccc(/N=C(/NCC(=O)O)Nc2ccc3ccccc3c2)cc1 : no (0)
CCOC(=O)c1cc(-c2ccn(C(C)=O)c2)c(-c2cc(C)co2)[nH]1 : no (0)
CCN(CC)CCCNC(=O)c1cc(-c2nccn2C)nc2ccccc12 : no (0)
NS(=O)(=O)c1cc(S(N)(=O)=O)c(NC(=O)Nc2ccc(Cl)c(Cl)c2)c(Cl)c1Cl : no (0)
CC(=O)O[C@H]1/C(=C/c2ccncc2)C[C@H]2[C@@H]3CC=C4C[C@@H](N5CCCC5)CC[C@]4(C)[C@H]3CC[C@]12C : no (0)
CC(C)=CCC/C(C)=C/CC/C(C)=C/CSc1ccccc1C(=O)O : no (0)
CN(C)c1ccc(/C=N/C23CC4CC(CC(C4)C2)C3)cc1 : no (0)
COc1ccc(C(C)c2cc3c(cc2O)OCO3)cc1 (stereo not drawn) : no (0)
Brc1ccc(-c2cc3c(cc2C2SCCS2)OCO3)cc1 : no (0)
O=C(Nc1ccccc1)n1[nH]c(=O)n(-c2ccccc2)c1=O : no (0)
CCC(=O)O[C@H]1CC[C@H]2[C@@H]3CCC4=C/C(=N/NC(=O)c5cccc6c(=O)c7ccccc7[nH]c56)CC[C@]4(C)[C@H]3CC[C@]12C : no (0)
CN(O)C(=O)CCCC(=O)NCC(C)(C)CNC(=O)CCCC(=O)N(C)O : no (0)
COC(=O)c1ccc(Cc2cc(Cc3ccc(C(=O)OC)cc3)cc(Cc3ccc(C(=O)OC)cc3)c2)cc1 : no (0)
O=C(O)Cc1cccc2c1OC(c1ccccc1)C(C(=O)c1ccccc1)C2=O (stereo not drawn) : no (0)
O=C(/C=C/c1c[nH]c2ccccc12)c1ccccc1O : no (0)
COc1cccc2c1/c(=C/c1ccc(N(C)C)cc1)c1cc(-c3ccccc3)[n+](C)n12 : yes (1)

----------
Measured GI50, listed per entry for reference.
System: HT-29
assay-overview: NCI tumour cell line growth inhibition, 48 h
The source made the active and inactive calls. Cut-off read from the data, not from the text of the source: active = GI50 up to about 1.1 µM and inactive = higher.
metric-name: GI50

Nc1nc(I)nc2c1ncn2C1OC(COS(N)(=O)=O)C(O)C1O (configuration not stated) : < 0.0106 µM (active)
O=C(Cn1c2ccc(Br)cc2c2nc3ccccc3nc21)Nc1ccccc1 : 24.8 µM (inactive)
c1cc(C2N3CCCN2CC3)ccn1 (configuration not stated) : > 100 µM (inactive)
COc1cc(-c2[nH]ccc2Cl)oc1C1=C2N=C3C=C2C(C(C)C)C1CCCCCCCC3 (configuration not stated) : 0.252 µM (active)
CCOC(=O)NC(=S)NC(C)c1ccccc1 (configuration not stated) : > 100 µM (inactive)
O=[As](O)(O)c1ccc(Cc2ccc([As](=O)(O)O)cc2)cc1 : 0.778 µM (active)
CCOc1ccc2[nH]c3c(C)c4cc[n+](C)cc4c(C)c3c2c1 : 3.25 µM (inactive)
Cc1cc(N)c(C)c2c1[nH]c1ccc(O)cc12 : > 100 µM (inactive)
COc1cc2c(/C=C3/C(=O)Nc4cc(C)c(O)cc43)c(Cl)[nH]c2cc1C : 2.33 µM (inactive)
O=C1SC(c2ccc(Cl)cc2)(c2ccc(Cl)cc2)c2ccccc21 : 38.5 µM (inactive)
CCNC(C)(C)C(SS)c1ccc(Br)cc1 (configuration not stated) : 25.8 µM (inactive)
CCCCC1Cc2ccccc2-c2nc3ccccc3n21 (configuration not stated) : 14.5 µM (inactive)
